- System: JEG-3 cells
- ASSAY_INFO: CellTiter-Glo luminescent cell viability assay (HTTS)
- Type: cell-based, human
- RECORDED_CONDITIONS: JEG-3 cells, 24 h exposure; four-parameter fit, estimates meeting inclusion criteria; listed as PFOS; read-out: Viability EC50 ± SD
pEC50: −log10 of the molar value.
ASSAY_ENDPOINT: pEC50

In [3]: df
Out[3]:
                           substance_smiles  system_under_test  numeric_result
0  O=S(=O)(O)C(F)(F)C(F)(F)C(F)(F)C(F)(F)C(F)(F)C(F)(F)C(F)(F)C(F)(F)F        JEG-3 cells            3.54

* * *

- Tested on: JEG-3 cells
- ASSAY_INFO: Proliferation, change in confluence 0-24 h (IncuCyte Zoom, HTTS)
- Type: cell-based, human
- RECORDED_CONDITIONS: Homo sapiens, JEG-3, 24 h, read-out: Proliferation EC50 ± SD, JEG-3 cells, 24 h exposure; four-parameter fit, estimates meeting inclusion criteria
pEC50: −log10 of the molar value.
Listing: pEC50 of selected compounds
ASSAY_ENDPOINT: pEC50

COMPOUND	ASSAY_ENDPOINT	NUMERIC_RESULT
O=C(O)C(F)(F)OC(F)(F)C(F)(F)OC(F)(F)C(F)(F)OC(F)(F)F [Perfluoro-3,6,9-trioxadecanoic acid]	pEC50	3.52
O=C(O)C(F)(F)C(F)(F)C(F)(F)C(F)(F)C(F)(F)C(F)(F)C(F)(F)C(F)(F)C(F)(F)F [Perfluorodecanoic acid]	pEC50	3.63
NC(=O)C(F)(F)C(F)(F)C(F)(F)C(F)(F)C(F)(F)C(F)(F)C(F)(F)F [Perfluorooctanamide]	pEC50	3.94
O=P(O)(OCCC(F)(F)C(F)(F)C(F)(F)C(F)(F)C(F)(F)C(F)(F)F)OCCC(F)(F)C(F)(F)C(F)(F)C(F)(F)C(F)(F)C(F)(F)F [6:2 Fluorotelomer phosphate diester]	pEC50	3.85
O=S(=O)(O)C(F)(F)C(F)(F)C(F)(F)C(F)(F)C(F)(F)C(F)(F)F [Perfluorohexanesulfonic acid]	pEC50	3.60
O=C(O)C(F)(F)C(F)(F)C(F)(F)C(F)(F)C(F)(F)C(F)(F)F [Perfluoroheptanoic acid]	pEC50	3.56
NS(=O)(=O)C(F)(F)C(F)(F)C(F)(F)C(F)(F)C(F)(F)C(F)(F)C(F)(F)C(F)(F)F [Perfluorooctanesulfonamide]	pEC50	3.80
O=C(O)C(F)(F)C(F)(F)C(F)(F)C(F)(F)C(F)(F)C(F)(F)C(F)(F)C(F)(F)C(F)(F)C(F)(F)C(F)(F)F [Perfluorododecanoic acid]	pEC50	3.50
O=C(O)C(F)(F)OC(F)(F)C(F)(F)OC(F)(F)C(F)(F)OC(F)(F)C(F)(F)C(F)(F)C(F)(F)F [Perfluoro-3,6,9-trioxatridecanoic acid]	pEC50	3.48
O=S(=O)(O)CCC(F)(F)C(F)(F)C(F)(F)C(F)(F)C(F)(F)C(F)(F)C(F)(F)C(F)(F)F [8:2 Fluorotelomer sulfonic acid]	pEC50	3.49
CC1=CC(=O)c2ccccc2C1=O [Menadione, reference compound]	pEC50	3.80
O=C(O)C(F)(F)OC(F)(F)C(F)(F)OC(F)(F)C(F)(F)C(F)(F)C(F)(F)F [Perfluoro-3,6-dioxadecanoic acid]	pEC50	3.55
O=C(O)C(F)(F)C(F)(F)C(F)(F)C(F)(F)C(F)(F)C(F)(F)C(F)(F)F [Perfluorooctanoic acid]	pEC50	3.46
O=C(O)C(F)(F)OC(F)(F)C(F)(F)OC(F)(F)F [Perfluoro-3,6-dioxaheptanoic acid]	pEC50	3.45
CCN(CC(=O)O)S(=O)(=O)C(F)(F)C(F)(F)C(F)(F)C(F)(F)C(F)(F)C(F)(F)C(F)(F)C(F)(F)F	pEC50	3.69
O=C(O)C(F)(F)C(F)(F)OC(F)(F)F [Perfluoro-3-methoxypropanoic acid]	pEC50	3.69

* * *

- System: JEG-3 cells
- ASSAY_INFO: Proliferation, change in confluence 0-24 h (IncuCyte Zoom, HTTS)
- Type: cell-based, human
- RECORDED_CONDITIONS: Homo sapiens, JEG-3, 24 h, read-out: proliferation EC50 ± SE, JEG-3 cells, 24 h
pEC50: −log10 of the molar value.
Listing: pEC50 of selected compounds
ASSAY_ENDPOINT: pEC50

COMPOUND	ASSAY_ENDPOINT	NUMERIC_RESULT
O=P(O)(OCCC(F)(F)C(F)(F)C(F)(F)C(F)(F)C(F)(F)C(F)(F)F)OCCC(F)(F)C(F)(F)C(F)(F)C(F)(F)C(F)(F)C(F)(F)F [6:2 Fluorotelomer phosphate diester]	pEC50	3.85
NS(=O)(=O)C(F)(F)C(F)(F)C(F)(F)C(F)(F)C(F)(F)C(F)(F)C(F)(F)C(F)(F)F [Perfluorooctanesulfonamide]	pEC50	3.80
NC(=O)C(F)(F)C(F)(F)C(F)(F)C(F)(F)C(F)(F)C(F)(F)C(F)(F)F [Perfluorooctanamide]	pEC50	3.94
CCN(CC(=O)O)S(=O)(=O)C(F)(F)C(F)(F)C(F)(F)C(F)(F)C(F)(F)C(F)(F)C(F)(F)C(F)(F)F	pEC50	3.69

* * *

Listing: EC50 of selected compounds
- System: JEG-3 cells
- ASSAY_INFO: CellTiter-Glo luminescent cell viability assay (HTTS)
- Assay type: cell-based, human
- RECORDED_CONDITIONS: JEG-3 cells, 24 h exposure; four-parameter fit, estimates meeting inclusion criteria; read-out: Viability EC50 ± SD
ASSAY_ENDPOINT: EC50 (µM)

>>> print(df.to_string())
                                    compound  system_under_test  assay_endpoint  unit_name  numeric_result
 0  O=C(O)C(F)(F)C(F)(F)C(F)(F)C(F)(F)C(F)(F)C(F)(F)C(F)(F)C(F)F        JEG-3 cells            EC50         µM             350
 1  O=C(O)C(F)(F)C(F)(F)C(F)(F)C(F)(F)C(F)(F)C(F)(F)C(F)F        JEG-3 cells            EC50         µM             318
 2  O=P(O)(O)OCCC(F)(F)C(F)(F)C(F)(F)C(F)(F)C(F)(F)C(F)(F)C(F)(F)C(F)(F)F [8:2 Fluorotelomer phosphate monoester]        JEG-3 cells            EC50         µM             360
 3              O=C(O)C(F)(F)C(F)(F)C(F)(F)F        JEG-3 cells            EC50         µM             226
 4  O=C(O)C(F)(F)C(F)(F)C(F)(F)C(F)(F)C(F)(F)C(F)F        JEG-3 cells            EC50         µM             223
 5  O=P(O)(O)OCCC(F)(F)C(F)(F)C(F)(F)C(F)(F)C(F)(F)C(F)(F)F [6:2 Fluorotelomer phosphate monoester]        JEG-3 cells            EC50         µM             183
 6          O=C(O)C(F)(F)C(F)(F)C(F)(F)C(F)F        JEG-3 cells            EC50         µM             354
 7  O=C(O)C(F)(F)C(F)(F)C(F)(F)C(F)(F)C(F)(F)C(F)(F)C(F)(F)C(F)(F)C(F)(F)C(F)(F)F        JEG-3 cells            EC50         µM             266
 8  O=C(O)C(F)(F)C(F)(F)C(F)(F)C(F)(F)C(F)(F)C(F)(F)C(F)(F)C(F)(F)F        JEG-3 cells            EC50         µM             333
 9   O=S(=O)(O)C(F)(F)C(F)(F)C(F)(F)C(F)(F)F        JEG-3 cells            EC50         µM             330
10  O=S(=O)(O)C(F)(F)C(F)(F)C(F)(F)C(F)(F)C(F)(F)C(F)(F)C(F)(F)C(F)(F)F        JEG-3 cells            EC50         µM             291

* * *

- Test system: JEG-3 cells
- ASSAY_INFO: Mitochondrial membrane potential, JC-10 assay (HTTS)
- Assay type: cell-based, human
- RECORDED_CONDITIONS: JEG-3 cells, 24 h exposure; four-parameter fit, estimates meeting inclusion criteria; listed as PFOS; read-out: MMP EC50 ± SD
pEC50: −log10 of the molar value.
ASSAY_ENDPOINT: pEC50

In [3]: df
Out[3]:
                           substance_smiles  system_under_test  assay_endpoint  numeric_result
0  O=S(=O)(O)C(F)(F)C(F)(F)C(F)(F)C(F)(F)C(F)(F)C(F)(F)C(F)(F)C(F)(F)F        JEG-3 cells           pEC50            3.45

The measured values listed here are drawn from paper PMC9081605.
